Entries below carry reported pIC50 on UniProt:O42275.
Sequence (O42275 whole entry): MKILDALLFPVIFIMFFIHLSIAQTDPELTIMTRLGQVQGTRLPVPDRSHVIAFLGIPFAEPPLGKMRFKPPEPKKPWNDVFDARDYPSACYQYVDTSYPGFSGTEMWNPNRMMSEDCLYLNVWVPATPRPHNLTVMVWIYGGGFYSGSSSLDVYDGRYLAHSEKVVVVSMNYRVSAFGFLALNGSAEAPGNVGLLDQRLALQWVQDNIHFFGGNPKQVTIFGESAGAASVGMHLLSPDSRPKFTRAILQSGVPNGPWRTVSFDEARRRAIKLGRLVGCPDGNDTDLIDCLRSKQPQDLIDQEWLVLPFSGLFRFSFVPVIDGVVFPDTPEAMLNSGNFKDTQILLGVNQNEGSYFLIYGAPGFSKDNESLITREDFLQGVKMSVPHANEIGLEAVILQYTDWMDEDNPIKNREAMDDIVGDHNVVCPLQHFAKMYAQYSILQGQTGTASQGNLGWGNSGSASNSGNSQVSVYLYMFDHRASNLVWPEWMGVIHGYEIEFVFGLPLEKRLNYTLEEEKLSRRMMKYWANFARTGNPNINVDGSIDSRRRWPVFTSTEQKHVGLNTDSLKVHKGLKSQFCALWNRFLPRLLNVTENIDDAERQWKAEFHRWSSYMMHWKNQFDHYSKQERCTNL
One number for each entry, as −log10 of the molar value.

Consider the reported pIC50 for these compounds:
Query string: GET pIC50 where system = UniProt:O42275 and item = O=C1Nc2cc(S(=O)(=O)Nc3ccc(Oc4ccccc4)cc3)cc3cccc1c23
Result string: 5.00

Query string: GET pIC50 where system = UniProt:O42275 and item = CCOc1cc(C(=O)NNC(=S)Nc2ccc(S(N)(=O)=O)cc2)cc(OCC)c1OCC
Result string: 5.32

Query string: GET pIC50 where system = UniProt:O42275 and item = C=CCn1c(SCCCC(=O)Nc2ccc(S(N)(=O)=O)cc2)nc2sc3c(c2c1=O)CCCC3
Result string: 5.60

Query string: GET pIC50 where system = UniProt:O42275 and item = COc1cc(/C=N/NC(=O)c2ccc(COc3cccc(Cl)c3)o2)cc(Br)c1O
Result string: 5.01

Query string: GET pIC50 where system = UniProt:O42275 and item = COc1cc(/C=N/NC(=O)c2ccc(COc3c(F)c(F)c(F)c(F)c3F)cc2)ccc1O
Result string: 5.17

Lab note: each compound below needs its pIC50 filled in.
1. CCNS(=O)(=O)c1ccc(NC(=O)c2ccc(Cn3nc(C)cc3C)o2)cc1
2. CCOc1cc(/C=N/NC(=O)c2cc(-c3cccc(OC)c3)n[nH]2)ccc1O
3. CC1CCc2c(sc3nc(SCC(=O)Nc4ccc(S(N)(=O)=O)cc4)n(N)c(=O)c23)C1 (stereo not given)

Result string:
1. 5.82
2. 5.11
3. 5.23

Lab note: each compound below needs its pIC50 filled in.
1. C=CCn1c2ccccc2c2nnc(SCC(=O)Nc3ccc(S(N)(=O)=O)cc3)nc21
2. CC(=O)Nc1ccc(-c2nnc(SCC(=O)Nc3ccc(Br)cc3Cl)n2C)cc1
3. C=C(C)COc1cc(C)cc2oc(=O)c(CC(=O)NCc3ccc(S(N)(=O)=O)cc3)c(C)c12
4. Cc1cccc(OCC(=O)Nc2cccc(Oc3ccc4c(c3)C(=O)NC4=O)c2)c1C
5. O=C1Nc2ccccc2/C1=N/NC(=O)c1ccc(Nc2nc(-c3ccccc3)cs2)cc1

Result string:
[5.19, 4.98, 4.91, 4.83, 5.02]

* * *

experiment: Lipophilicity, log D of the compound; type: physicochemical; conditions: octanol/water
Kind request: treat 3 as inclusive, so logD at 3 or higher is fulfilled, anything lower is not fulfilled.

Reference set, count: 5
Query string: Hi, just wondering whether Cc1cccc(OCC(=O)Nc2cccc(Oc3ccc4c(c3)C(=O)NC4=O)c2)c1C shows logD of 3 or higher.
Result string: fulfilled

Query string: Hi, just wondering whether CC1CCc2c(sc3nc(SCC(=O)Nc4ccc(S(N)(=O)=O)cc4)n(N)c(=O)c23)C1 (stereo not drawn) shows logD of 3 or higher.
Result string: not fulfilled

Query string: Hi, just wondering whether CCOc1cc(C(=O)NNC(=S)Nc2ccc(S(N)(=O)=O)cc2)cc(OCC)c1OCC shows logD of 3 or higher.
Result string: not fulfilled

Query string: Hi, just wondering whether COc1cc(/C=N/NC(=O)c2ccc(COc3c(F)c(F)c(F)c(F)c3F)cc2)ccc1O shows logD of 3 or higher.
Result string: fulfilled

Query string: Hi, just wondering whether CC(=O)Nc1ccc(-c2nnc(SCC(=O)Nc3ccc(Br)cc3Cl)n2C)cc1 shows logD of 3 or higher.
Result string: fulfilled

New cases:
Query string: Hi, just wondering whether O=C1Nc2ccccc2/C1=N/NC(=O)c1ccc(Nc2nc(-c3ccccc3)cs2)cc1 shows logD of 3 or higher.
Result string: fulfilled

Query string: Hi, just wondering whether C=C(C)COc1cc(C)cc2oc(=O)c(CC(=O)NCc3ccc(S(N)(=O)=O)cc3)c(C)c12 shows logD of 3 or higher.
Result string: fulfilled
